# study.target: T1, human NPR1 on CHO-K1 cells in the presence of ANP (human, UniProt P01160 124-151)
# T1 construct: also called hNPR1 CHO K1 + 100 nM ANP
# T1 sequence: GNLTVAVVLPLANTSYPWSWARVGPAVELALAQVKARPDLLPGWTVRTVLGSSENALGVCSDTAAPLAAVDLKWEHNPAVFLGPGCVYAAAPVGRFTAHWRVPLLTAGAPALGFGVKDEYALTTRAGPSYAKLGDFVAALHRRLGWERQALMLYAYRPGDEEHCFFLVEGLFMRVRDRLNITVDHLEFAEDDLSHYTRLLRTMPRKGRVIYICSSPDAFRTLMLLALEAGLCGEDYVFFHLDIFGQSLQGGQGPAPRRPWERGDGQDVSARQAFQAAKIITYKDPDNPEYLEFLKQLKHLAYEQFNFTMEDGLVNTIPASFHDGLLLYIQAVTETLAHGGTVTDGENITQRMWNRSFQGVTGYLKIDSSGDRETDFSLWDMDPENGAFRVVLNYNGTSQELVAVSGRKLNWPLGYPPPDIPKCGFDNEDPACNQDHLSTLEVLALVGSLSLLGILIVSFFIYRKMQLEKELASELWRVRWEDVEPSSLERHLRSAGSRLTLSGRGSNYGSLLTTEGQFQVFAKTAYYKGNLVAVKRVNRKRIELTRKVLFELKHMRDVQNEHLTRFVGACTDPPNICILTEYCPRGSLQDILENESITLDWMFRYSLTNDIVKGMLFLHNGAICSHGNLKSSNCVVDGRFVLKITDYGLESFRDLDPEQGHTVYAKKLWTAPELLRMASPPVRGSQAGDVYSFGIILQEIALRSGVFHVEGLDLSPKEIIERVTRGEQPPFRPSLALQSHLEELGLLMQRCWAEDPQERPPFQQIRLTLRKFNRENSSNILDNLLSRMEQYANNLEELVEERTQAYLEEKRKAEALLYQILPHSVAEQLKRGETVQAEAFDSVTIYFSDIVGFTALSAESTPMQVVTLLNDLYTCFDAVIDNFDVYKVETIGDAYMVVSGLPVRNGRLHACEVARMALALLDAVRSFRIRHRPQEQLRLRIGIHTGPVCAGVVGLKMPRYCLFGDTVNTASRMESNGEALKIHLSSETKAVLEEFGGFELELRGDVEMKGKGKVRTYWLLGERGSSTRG
# T1 sequence (peptide): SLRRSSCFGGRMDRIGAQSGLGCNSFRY
# protocol.details: flow cytometry, hNPR1 CHO-K1 cells, IgG
test.readout: flow cytometry S/BG at 1 µM IgG (S/BG)
Please respond with the number in S/BG and leave the unit unwritten.

Which flow cytometry S/BG at 1 µM IgG is listed for YY04 (IgG format) (antibody, V domains shown, also called YY04_LALA) VH: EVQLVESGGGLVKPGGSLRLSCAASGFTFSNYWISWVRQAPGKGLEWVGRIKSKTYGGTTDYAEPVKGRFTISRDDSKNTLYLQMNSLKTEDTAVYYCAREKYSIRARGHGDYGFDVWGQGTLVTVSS VL: DIQMTQSPSSLSASVGDRVTITCRASQGISNYLAWYQQKPGKVPKLLIYAASTLQSGVPSRFSGSGSGTDFTLTISSLQPEDVATYYCQQGYHAPFTFGQGTKVEIKR ?
33
